This collection of values is drawn from patent US20030148956A1.

# TARGET_OR_SYSTEM: T1, CRF2R
# T1 sequence (Q13324 whole entry, species assumed, looked up): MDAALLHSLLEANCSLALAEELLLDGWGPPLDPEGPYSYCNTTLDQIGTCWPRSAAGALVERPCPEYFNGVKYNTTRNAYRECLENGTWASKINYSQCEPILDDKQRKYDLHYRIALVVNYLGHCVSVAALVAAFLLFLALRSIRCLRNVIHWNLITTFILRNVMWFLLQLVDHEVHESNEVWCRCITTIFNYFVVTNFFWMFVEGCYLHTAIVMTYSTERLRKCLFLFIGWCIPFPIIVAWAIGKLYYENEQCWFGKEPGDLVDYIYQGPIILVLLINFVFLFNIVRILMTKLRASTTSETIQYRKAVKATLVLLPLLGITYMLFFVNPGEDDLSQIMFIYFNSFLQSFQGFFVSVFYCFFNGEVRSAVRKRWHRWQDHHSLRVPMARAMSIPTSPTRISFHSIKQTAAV
# ASSAY_NAME: cell-based or functional assay
Ends that are not written are not given here.

- BINDER: "ZGPPISIDLPHHLLRKMIEIEKQEKEKQQAANNRLLLDTI (C-terminal amide) [SEQ ID NO 205]"
  CRF2R Emax / %: 93
- BINDER: "ZGPPISIDLPSYLLRKMIEIEKQEKEKQQAANNRLLLDTI (C-terminal amide) [SEQ ID NO 56]"
  CRF2R Emax / %: 87
- BINDER: "DNPSLSIDLPFYLLRTLLELARTQSQRERAEQNAIIFASV-NH2 [SEQ ID NO 183]"
  CRF2R Emax / %: 100
- BINDER: "SQEPPISLDLTFHLLREVLEQARARAAREQATTNARILARV-NH2 [SEQ ID NO 157]"
  CRF2R Emax / %: 60.6
- BINDER: "ZGPPISIDLPYVLLRKMIEIEKQEKEKQQAANNRLLLDTI (C-terminal amide) [SEQ ID NO 201]"
  CRF2R Emax / %: 100
- BINDER: "ZGPPISIDLPISLLRKMIEIEKQEKEKQQAANNRLLLDTI (C-terminal amide) [SEQ ID NO 53]"
  CRF2R Emax / %: 95
- BINDER: "ZGPPISIDLPTNLLRKMIEIEKQEKEKQQAANNRLLLDTI (C-terminal amide) [SEQ ID NO 59]"
  CRF2R Emax / %: 27
- BINDER: "IVLSLDVPIGLLQILLEQERAEAAREQATTNARILARV-NH2 [SEQ ID NO 113]"
  CRF2R Emax / %: 98
- BINDER: "ZGPPISIDLPTKLLRKMIEIEKQEKEKQQAANNRLLLDTI (C-terminal amide) [SEQ ID NO 45]"
  CRF2R Emax / %: 44
- BINDER: "SQEPPISLDLPIHLLREVLEMTKADQLAQQAHSNRKLLDIA-NH2 [SEQ ID NO 94]"
  CRF2R Emax / %: 6.15
- BINDER: "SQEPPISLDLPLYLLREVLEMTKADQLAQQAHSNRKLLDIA-NH2 [SEQ ID NO 101]"
  CRF2R Emax / %: 6.95
- BINDER: "ZGPPISIDLPNYLLRKMIEIEKQEKEKQQAANNRLLLDTI (C-terminal amide) [SEQ ID NO 64]"
  CRF2R Emax / %: 94
- BINDER: "DNPSLSIDLPLILLRTLLELARTQSQRERAEQNAIIFASV-NH2 [SEQ ID NO 175]"
  CRF2R Emax / %: 92.2
- BINDER: "DNPSLSIDLPFFLLRTLLELARTQSQRERAEQNAIIFASV-NH2 [SEQ ID NO 184]"
  CRF2R Emax / %: 96.5
- BINDER: "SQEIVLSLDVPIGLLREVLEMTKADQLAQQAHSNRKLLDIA-NH2 [SEQ ID NO 152]"
  CRF2R Emax / %: 19
- BINDER: "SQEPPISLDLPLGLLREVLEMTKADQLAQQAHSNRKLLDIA-NH2 [SEQ ID NO 90]"
  CRF2R Emax / %: 12.2
- BINDER: "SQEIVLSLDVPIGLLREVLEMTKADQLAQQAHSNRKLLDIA-NH2 [SEQ ID NO 7]"
  CRF2R Emax / %: 19
- BINDER: "IVLSLDVPIGLLQILLEQTRARAAREQATTNARILARV-NH2 [SEQ ID NO 128]"
  CRF2R Emax / %: 98
- BINDER: "ZGPPISIDLPFQLLRKMIEIEKQEKEKQQATTNARILARV (C-terminal amide) [SEQ ID NO 148]"
  CRF2R Emax / %: 51.5
- BINDER: "ZGPPISIDVPFQLLRKMIEIEKQEKEKQQATTNARILARV (C-terminal amide) [SEQ ID NO 172]"
  CRF2R Emax / %: 100
- BINDER: "ZGPPISIDVPFQLLRILIEIEKQEKEKQQATTNARILARV (C-terminal amide) [SEQ ID NO 171]"
  CRF2R Emax / %: 100
- BINDER: "ZGPPISIDLPQHLLRKMIEIEKQEKEKQQAANNRLLLDTI (C-terminal amide) [SEQ ID NO 207]"
  CRF2R Emax / %: 96
- BINDER: "ZGPPISIDLPTALLRKMIEIEKQEKEKQQAANNRLLLDTI (C-terminal amide) [SEQ ID NO 61]"
  CRF2R Emax / %: 89
- BINDER: "ZGPPISIDLPTWLLRKMIEIEKQEKEKQQAANNRLLLDTI (C-terminal amide) [SEQ ID NO 41]"
  CRF2R Emax / %: 100
